These data points were gathered from BindingDB's records for doi:10.1021/bi00118a023.

biological target: Bifunctional aspartokinase/homoserine dehydrogenase 1 (Escherichia coli (strain K12), UniProt P00561); assay: Inhibition Assay
Sequence (P00561 whole entry): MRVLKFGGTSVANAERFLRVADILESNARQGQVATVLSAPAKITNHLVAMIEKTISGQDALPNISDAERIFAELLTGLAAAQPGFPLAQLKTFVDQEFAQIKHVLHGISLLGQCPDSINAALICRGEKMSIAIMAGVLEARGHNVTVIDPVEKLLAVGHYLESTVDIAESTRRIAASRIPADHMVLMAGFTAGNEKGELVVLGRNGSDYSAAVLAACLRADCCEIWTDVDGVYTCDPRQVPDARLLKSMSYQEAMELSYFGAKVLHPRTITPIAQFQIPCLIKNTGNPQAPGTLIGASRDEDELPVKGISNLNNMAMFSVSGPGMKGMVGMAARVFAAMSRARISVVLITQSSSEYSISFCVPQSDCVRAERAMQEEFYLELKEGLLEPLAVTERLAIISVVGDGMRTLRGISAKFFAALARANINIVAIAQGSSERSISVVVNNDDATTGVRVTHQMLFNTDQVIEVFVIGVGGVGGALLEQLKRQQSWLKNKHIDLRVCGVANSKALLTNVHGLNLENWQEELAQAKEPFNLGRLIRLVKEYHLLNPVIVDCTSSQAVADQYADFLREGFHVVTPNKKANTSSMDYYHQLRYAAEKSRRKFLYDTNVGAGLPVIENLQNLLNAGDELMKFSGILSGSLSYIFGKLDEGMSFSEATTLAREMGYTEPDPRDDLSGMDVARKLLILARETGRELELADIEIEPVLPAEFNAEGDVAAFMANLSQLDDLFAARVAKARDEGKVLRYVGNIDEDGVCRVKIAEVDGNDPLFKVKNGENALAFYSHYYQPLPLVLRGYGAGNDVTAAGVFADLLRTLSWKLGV
pKi: −log10 of the molar value.
Value kind: pKi

# Compound, pKi
records = [
    ("COC(=O)CC[C@H](N)C(=O)O [L-glutamate gamma-methyl ester]", 1.62),
    ("NC(=O)C[C@@H](N)C(=O)O", 1.41),
    ("N[C@@H](CN(O)N=O)C(=O)O", 2.12),
    ("CC(C)[C@H](N)C(=O)O", 1.49),
    ("N[C@@H](COP(=O)(O)O)C(=O)O", 1.92),
]

a = N[C@@H](CCOP(=O)(O)O)C(=O)O [Homoserine phosphate]
b = N[C@@H](CC(=O)O)C(=O)OCc1ccccc1 [D-aspartate alpha-benzyl ester]
c = CCC[C@H](N)C(=O)O
Hey, quick one: sort these by pKi, top value first please. Return value: ordered labels per request. c, a, b

---

Target: Bifunctional aspartokinase/homoserine dehydrogenase 1 (Escherichia coli (strain K12))
Assay: Inhibition Assay
From the text: Analogues of L-aspartic acid and beta-aspartyl phosphate were examined as inhibitors in the aspartokinase I reaction by using the coupled reaction with ASA-DH.
# Lookup of reported Ki keyed by entry
Kindly answer with a numeric value in mM, unit omitted.

# Molecule, Assayed system, Ki [mM]
data = [
    ("N[C@@H](CCC(=O)O)C(=O)O", "Bifunctional aspartokinase/homoserine dehydrogenase 1 (Escherichia coli (strain K12))", 38),
    ("NC(CCCP(=O)(O)O)C(=O)O (stereo not drawn) [DL-2-Amino-5-phosphonovalerate]", "Bifunctional aspartokinase/homoserine dehydrogenase 1 (Escherichia coli (strain K12))", 8.4),
]

In the following, a different molecule is considered.
Reported Ki ( CCCC[C@H](N)C(=O)O ) = 24
